Source: paper PMC4890880

System: Plasmodium berghei (Pb-Luc) exoerythrocytic-stage parasites
Test: microbe, parasite or virus in culture
Settings: read-out: Inhibition% @ 50 uM rep2

| compound | target_system | inhibition at 50 µM [%] |
| --- | --- | --- |
| COc1cc(C(=O)Nc2ccc(-c3nc4ccccc4[nH]3)cc2)cc(OC)c1OC | Plasmodium berghei (Pb-Luc) exoerythrocytic-stage parasites | 101 |
| CC(Oc1ccc(NC(=O)c2cccs2)cc1)C(=O)c1ccc(Cl)cc1 (stereo not shown) | Plasmodium berghei (Pb-Luc) exoerythrocytic-stage parasites | 102 |
| CC(C)(C)C(=O)Nc1ccc(C(=O)Nc2cccc(-c3nc4ccccc4[nH]3)c2)cc1 | Plasmodium berghei (Pb-Luc) exoerythrocytic-stage parasites | 103 |
| CCCCCCOC(=O)C1=C(C)NC(=O)NC1c1ccccc1F (stereo not shown) | Plasmodium berghei (Pb-Luc) exoerythrocytic-stage parasites | 63 |

* * *

Test system: Plasmodium cynomolgi exoerythrocytic-stage small (hypnozoites) and large (liver stage schizonts) parasites
Test: P. cynomolgi liver assay in primary hepatocytes
Conditions: Plasmodium cynomolgi, Hepatocyte, read-out: % inhibition normalized to untreated control, Small

| molecule | unit_tag | inhibition at 0.1 µM |
| --- | --- | --- |
| COc1cc(NC(C)CCCN)c2ncccc2c1 (stereo not shown) [Primaquine, reference compound] | % | 4 |
| COc1cccc(C=Cc2nc(=O)c3ccccc3o2)c1OC | % | 29 |
| Brc1ccc(Nc2nc3ccccc3nc2Nc2ccc(Br)cc2)cc1 | % | 30 |
| COc1ccc(C2=C(c3ccc(OC)cc3)C3(c4ccccc4)C(=O)C2(c2ccccc2)C2C(=O)N(c4ccc(C)cc4)C(=O)C23)cc1 (stereo not shown) | % | 4 |

* * *

System: Plasmodium berghei (Pb-Luc) exoerythrocytic-stage parasites
Details: concentration 3.33333, second series
quantity_name: normalised signal at concentration 3.33333 (second series)

| structure_string | assay_result |
| --- | --- |
| COc1ccccc1S(=O)(=O)N(C)C[C@@H]1OCc2ccccc2-c2ccccc2C(=O)N([C@H](C)CO)C[C@@H]1C | 0.8055 |
| COc1ccc2c3c([nH]c2c1)[C@H](CO)N(Cc1ccccc1)CC31CN(C(=O)c2ccccn2)C1 | 0.6466 |
| O=C(Nc1ccccc1F)N1CCCCN2[C@@H](CO)[C@@H](c3ccc(/C=C/c4ccccc4)cc3)[C@@H]2C1 | 0.672 |
| C[C@@H]1CCCCO[C@@H](CN(C)S(=O)(=O)c2ccc(F)cc2)[C@H](C)CN([C@H](C)CO)C(=O)c2cc(N(C)C)ccc2O1 | 0.867 |
| C[C@@H]1CCCCO[C@H](CN(C)S(=O)(=O)c2ccc(F)cc2)[C@H](C)CN([C@H](C)CO)C(=O)c2cc(N(C)C)ccc2O1 | 1.135 |
| C[C@@H]1CN([C@@H](C)CO)C(=O)c2cccc(NC(=O)c3ccc(-c4nccs4)cc3)c2O[C@@H]1CN(C)C(=O)Nc1ccc(C(F)(F)F)cc1 | 1.012 |
| COc1ccc(CNC(=O)C[C@H]2CC[C@@H](NC(=O)CN(C)C)[C@H](CO)O2)cc1 | 0.8448 |
| C[C@@H]1CCCCO[C@H](CN(C)S(=O)(=O)c2ccc(F)cc2)[C@H](C)CN([C@@H](C)CO)C(=O)c2cc(N(C)C)ccc2O1 | 1.06 |
| O=C(NCc1ccc2c(c1)OCO2)[C@@H]1[C@@H](CO)[C@@H]2Cn3c(cccc3=O)[C@H]1N2Cc1cncnc1 | 0.9284 |
| COc1ccc(NC(=O)N(C)C[C@H]2Oc3c(NC(=O)CCCCCC(=O)Nc4ccccc4N)cccc3C(=O)N([C@@H](C)CO)C[C@H]2C)cc1 | 1.0698 |
| C[C@@H]1CCCCO[C@@H](CN(C)S(=O)(=O)c2ccc(F)cc2)[C@H](C)CN([C@@H](C)CO)C(=O)c2cc(N(C)C)ccc2O1 | 0.7361 |
| COc1cccc(NC(=O)N[C@@H]2CC[C@H](CC(=O)N3CCN(C)CC3)O[C@@H]2CO)c1 | 0.9328 |
| CC(C)[C@@H]1COCc2cnnn2CCC[C@H](C)C(=O)N1 | 0.9379 |

* * *

Test system: Plasmodium berghei (Pb-Luc) exoerythrocytic-stage parasites
Details: concentration 10, second series of dose columns
The entries below are paired with their reported normalised signal at concentration 10 (second series).
quantity_name: normalised signal at concentration 10 (second series)

| structure_string | target_system | assay_result |
| --- | --- | --- |
| CC(C)[C@@H]1COCc2cnnn2CCC[C@H](C)C(=O)N1 | Plasmodium berghei (Pb-Luc) exoerythrocytic-stage parasites | 0.8693 |
| O=C(NCc1ccc2c(c1)OCO2)[C@@H]1[C@@H](CO)[C@@H]2Cn3c(cccc3=O)[C@H]1N2Cc1cncnc1 | Plasmodium berghei (Pb-Luc) exoerythrocytic-stage parasites | 0.9564 |
| COc1cccc(NC(=O)N[C@@H]2CC[C@H](CC(=O)N3CCN(C)CC3)O[C@@H]2CO)c1 | Plasmodium berghei (Pb-Luc) exoerythrocytic-stage parasites | 0.9502 |
| COc1ccccc1S(=O)(=O)N(C)C[C@@H]1OCc2ccccc2-c2ccccc2C(=O)N([C@H](C)CO)C[C@@H]1C | Plasmodium berghei (Pb-Luc) exoerythrocytic-stage parasites | 0.7248 |
| COc1ccc2c3c([nH]c2c1)[C@H](CO)N(Cc1ccccc1)CC31CN(C(=O)c2ccccn2)C1 | Plasmodium berghei (Pb-Luc) exoerythrocytic-stage parasites | 0.621 |
| C[C@@H]1CCCCO[C@@H](CN(C)S(=O)(=O)c2ccc(F)cc2)[C@H](C)CN([C@@H](C)CO)C(=O)c2cc(N(C)C)ccc2O1 | Plasmodium berghei (Pb-Luc) exoerythrocytic-stage parasites | 0.7674 |
| COc1ccc(CNC(=O)C[C@H]2CC[C@@H](NC(=O)CN(C)C)[C@H](CO)O2)cc1 | Plasmodium berghei (Pb-Luc) exoerythrocytic-stage parasites | 0.8679 |
| C[C@H]1CCCCO[C@@H](CN(C)S(=O)(=O)c2ccc(F)cc2)[C@@H](C)CN([C@@H](C)CO)C(=O)c2cc(N(C)C)ccc2O1 | Plasmodium berghei (Pb-Luc) exoerythrocytic-stage parasites | 0.6635 |
| C[C@@H]1CCCCO[C@H](CN(C)S(=O)(=O)c2ccc(F)cc2)[C@H](C)CN([C@@H](C)CO)C(=O)c2cc(N(C)C)ccc2O1 | Plasmodium berghei (Pb-Luc) exoerythrocytic-stage parasites | 0.8275 |
| C[C@@H]1CCCCO[C@H](CN(C)S(=O)(=O)c2ccc(F)cc2)[C@H](C)CN([C@H](C)CO)C(=O)c2cc(N(C)C)ccc2O1 | Plasmodium berghei (Pb-Luc) exoerythrocytic-stage parasites | 0.9617 |
| C[C@@H]1CCCCO[C@@H](CN(C)S(=O)(=O)c2ccc(F)cc2)[C@H](C)CN([C@H](C)CO)C(=O)c2cc(N(C)C)ccc2O1 | Plasmodium berghei (Pb-Luc) exoerythrocytic-stage parasites | 0.7644 |
| O=C(Nc1ccccc1F)N1CCCCN2[C@@H](CO)[C@@H](c3ccc(/C=C/c4ccccc4)cc3)[C@@H]2C1 | Plasmodium berghei (Pb-Luc) exoerythrocytic-stage parasites | 0.4819 |

* * *

System: Plasmodium berghei (Pb-Luc) exoerythrocytic-stage parasites
Test: microbe, parasite or virus in culture
Details: read-out: PbLuc IC50, dose response, 1/3 dilutions, max conc. 10 or 50 uM, unit inferred
pIC50: −log10 of the molar value.
Here, each record is paired with measured pIC50 data.

| molecule | target_system | pIC50 |
| --- | --- | --- |
| COc1cccc(C(=O)NC(c2ccc(C)cc2)c2cc(Cl)c3cccnc3c2O)c1 (stereo not shown) | Plasmodium berghei (Pb-Luc) exoerythrocytic-stage parasites | 5.78 |
| COc1cccc(NC(=O)[C@H](C(C)C)n2c(=O)[nH]c3ccccc3c2=O)c1 | Plasmodium berghei (Pb-Luc) exoerythrocytic-stage parasites | 4.88 |
| O=C(NCc1ccco1)C1CCN(S(=O)(=O)c2ccc(Cl)cc2)CC1 | Plasmodium berghei (Pb-Luc) exoerythrocytic-stage parasites | 6.15 |
| O=C(NC1CCN(Cc2ccccc2)CC1)c1cc(C(=O)NC2CCN(Cc3ccccc3)CC2)cc(C(=O)NC2CCN(Cc3ccccc3)CC2)c1 | Plasmodium berghei (Pb-Luc) exoerythrocytic-stage parasites | 4.83 |

* * *

Tested on: HepG2-A16-CD81EGFP cells
quantity_name: CC50

| structure_string | assay_result |
| --- | --- |
| O=C(Nc1cccc(F)c1)N1CCCCN2[C@H](CO)[C@@H](c3ccc(C#Cc4cccnc4)cc3)[C@@H]2C1 | > 10 µM |
| CS(=O)(=O)N1[C@H](C#N)[C@H](c2ccc(C#Cc3cccc(F)c3)cc2)[C@H]1CO | > 10 µM |

* * *

Tested on: Plasmodium berghei (Pb-Luc) exoerythrocytic-stage parasites
Conditions: second series of columns (replicate); concentration 0.0411523; fraction of control
quantity_name: normalized signal at concentration 0.0411523

| compound | assay_result |
| --- | --- |
| COc1cccc(S(=O)(=O)N2CCCCN3[C@H](CO)[C@H](c4ccc(C#CCC(C)C)cc4)[C@H]3C2)c1 | 0.9735 |
| Cc1noc(C)c1S(=O)(=O)N(C)C[C@H]1OCc2cn(nn2)CCCC(=O)N([C@@H](C)CO)C[C@@H]1C | 0.8593 |
| C[C@@H]1CCCCO[C@H](CN(C)S(=O)(=O)c2ccc(F)cc2)[C@@H](C)CN([C@@H](C)CO)C(=O)c2cc(N(C)C)ccc2O1 | 1.045 |
| C[C@H](CO)N1C[C@H](C)[C@H](CN(C)S(=O)(=O)c2ccc(F)cc2)OCCCC[C@H](C)Oc2ccc(N(C)C)cc2C1=O | 0.8684 |
| O=C(Nc1ccc2c(c1)[C@@H]1C[C@@H](CC(=O)N3CCc4ccccc4C3)O[C@@H](CO)[C@@H]1O2)c1ccc2c(c1)OCO2 | 0.8229 |
| CO[C@H]1CN(C)C(=O)c2cc(NC(=O)c3cccc(F)c3)ccc2OC[C@H](C)N(C)C[C@H]1C | 0.8874 |
| COc1ccccc1NC(=O)N1C[C@@H]2N[C@H](C1)C2c1ccc(/C=C/c2ccccc2)cc1 (stereo partly drawn) | 0.9154 |
| CC(C)NC(=O)NCC[C@@H]1CC[C@H](NS(=O)(=O)c2ccc(Oc3ccccc3)cc2)[C@@H](CO)O1 | 0.9772 |
| C[C@@H]1CN([C@@H](C)CO)C(=O)c2ccccc2-c2ccccc2CO[C@@H]1CN(C)S(=O)(=O)Cc1ccccc1 | 0.8932 |
| C[C@H]1CN([C@@H](C)CO)C(=O)CCCn2cc(nn2)CO[C@H]1CN(C)C(=O)Nc1cccc2ccccc12 | 0.9428 |
| O=C(O)C[C@H]1CC[C@@H]2[C@H](COC[C@@H](O)CN2S(=O)(=O)c2ccc(Oc3ccccc3)cc2)O1 | 1.066 |
| Cc1noc(C)c1S(=O)(=O)N(C)C[C@@H]1OCCCC[C@@H](C)Oc2ccc(N(C)C)cc2C(=O)N([C@@H](C)CO)C[C@H]1C | 0.9045 |
